Hey, just so you know, these numbers are from the supplement of paper PMC10670038.

- Test system: TE10
- Procedure summary: relative cell viability vs DMSO, compound alone (fraction); TE10 is an esophageal squamous carcinoma line; higher = less cytotoxic
- Test conditions: 2 µM; 48 h
Where a name gives a salt, the structure may show the parent alone. Over roughly 2,000 compounds, “relative cell viability vs DMSO, compound alone” has its median near 1.1; the lowest 2% begin near 0.29. Many of the other results were omitted from the sample, so the lowest values are more common in it than they were.
Readout label: relative cell viability

- CNC(=O)[C@H](Cc1ccccc1)NC(=O)[C@H](CC(C)C)[C@H](CSc1cccs1)C(=O)NO: 0.884
- NC(=O)N/N=C/c1ccc([N+](=O)[O-])o1: 1.02
- Nc1ccccc1NC(=O)c1cnccn1: 1.11
- CNC[C@@H](O)c1ccc(O)c(O)c1: 1.06
- O=C(c1ccc(Nc2nccc(-c3cc4ccccc4s3)n2)cc1)N1CCC(N2CCCC2)CC1: 1.03
- CC(=O)Oc1cccc2c1C(=O)c1c(OC(C)=O)cc(C(=O)O)cc1C2=O: 1.11
- CCC[C@@H]1C[C@@H](C(=O)N[C@@H]([C@H]2O[C@H](SC)[C@H](O)[C@@H](O)[C@H]2O)[C@@H](C)O)N(C)C1 [Lincomycin HCl]: 1.12
- C/C(=N\NC(=O)c1cccc(S(=O)(=O)N2CCOCC2)c1)c1cc(Cl)ccc1O: 0.879
